Entries and their measured %Inh follow.
System: FER
Conditions: concentration: 1 μM, replicates: in singlicate; n = 1;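 further: KINOMEscan kinase panel screen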
// note: answer is a bare numeric in %

Incoming: Which %Inh value is on record for Cl.Cl.NCC(C(=O)Nc1cc(Br)c(-c2ccnc3[nH]ccc23)s1)c1ccccc1 (centres unmarked) ?
Outgoing: 18

Incoming: Which %Inh value is on record for Nc1n[nH]c2cnc(-c3ccccc3)cc12 ?
Outgoing: 0

Incoming: Which %Inh value is on record for O=C(Nc1cccc(Oc2ccc3nc(NC(=O)C4CC4)cn3n2)c1)c1ccccc1C(F)(F)F ?
Outgoing: 0

Incoming: Which %Inh value is on record for Cl.Cl.NCC(NC(=O)c1cc(-c2ccccc2)c(-c2ccnc3[nH]ccc23)s1)c1ccccc1 (centres unmarked) ?
Outgoing: 36

Incoming: Which %Inh value is on record for CN1CCN(Cc2cccc(-c3ccc4c(Nc5ccc(Oc6ccccc6)cc5)ccnc4c3)c2)CC1 ?
Outgoing: 4

====

System: DDR1
Conditions: concentration: 1 μM, replicates: in singlicate; n = 1
Entries and their measured %Inh follow.

| compound | measured_endpoint | recorded_value |
| --- | --- | --- |
| COc1ccc(Nc2nccc(NCCNC(=O)c3cc4ccccc4s3)n2)cc1 [GSK1379896] | %Inh | 0% |
| Nc1ncc(-c2ccc3nccc(-c4ccncc4)c3c2)cc1S(=O)(=O)N1CCOCC1 [GSK1627798] | %Inh | 0% |
| CC(C)(C)c1ccc2nccc(Nc3cccc(O)c3)c2c1 [GW856795] | %Inh | 62% |
| COc1cccc(C(=O)Nc2cccc(Oc3ccc4nc(NC(=O)C5CC5)cn4n3)c2)c1 | %Inh | 100% |

Incoming: Can you look up %Inh on DDR1 for CN(C)Cc1ccc(-c2ccc3c(Nc4ccc(Oc5ccccn5)cc4)ccnc3c2)o1 [GW567148] ?
Outgoing: 38%

Incoming: Can you look up %Inh on DDR1 for Cl.Cl.NCC(NC(=O)c1cc(-c2ccccc2)c(-c2ccnc3[nH]ccc23)s1)c1ccccc1 (centres unmarked) [GSK1321561] ?
Outgoing: 99.7%

Incoming: Can you look up %Inh on DDR1 for COc1cccc(NC(=O)NC2CCN(c3ccnc(Nc4cc(OC)c(OC)c(OC)c4)n3)C2)c1 (centres unmarked) [GSK1379763] ?
Outgoing: 22%

Incoming: Can you look up %Inh on DDR1 for COCCOCCOc1cc2ncc3c4ccc(C#N)cc4[nH]c3c2cc1OC ?
Outgoing: 0%

Incoming: Can you look up %Inh on DDR1 for O=C(Nc1cccc(-c2nn3ccccc3c2-c2ccnc(Nc3cccc(F)c3)n2)c1)c1c(F)ccc(F)c1Cl [GSK357952] ?
Outgoing: 100%

Incoming: Can you look up %Inh on DDR1 for C[C@@H](Oc1cc(-n2cnc3cc(-c4ccnc(NCCS(C)(=O)=O)c4)ccc32)sc1C(N)=O)c1ccccc1Cl [GSK907232] ?
Outgoing: 0%

Incoming: Can you look up %Inh on DDR1 for O=c1[nH]cc(-c2ccc(N3CCOCC3)cc2)c2sc(-c3cn[nH]c3)cc12 [GSK2276055] ?
Outgoing: 3%

Incoming: Can you look up %Inh on DDR1 for Cc1ccc(C(=O)Nc2ccc(Nc3ccnc4cc(-c5nccs5)ccc34)cc2O)cc1.Cl [GW494702] ?
Outgoing: 22%

Incoming: Can you look up %Inh on DDR1 for Oc1cc(Nc2ccnc3cc(I)ccc23)ccc1F [GW552771] ?
Outgoing: 14%

Incoming: Can you look up %Inh on DDR1 for Cc1ccc(C)c(NC(=O)NC2CCN(c3ccnc(Nc4ccc(F)cc4)n3)C2)c1 (centres unmarked) [GSK1379720] ?
Outgoing: 0%

Incoming: Can you look up %Inh on DDR1 for Nc1ncc(-c2cccnc2)c2scc(-c3ccc4c(c3)CCN4C(=O)Cc3ccccc3)c12 [GSK683281] ?
Outgoing: 63%

Incoming: Can you look up %Inh on DDR1 for c1ccc(-c2n[nH]cc2Nc2ccnc3ccccc23)nc1 [GW694077] ?
Outgoing: 0%

Incoming: Can you look up %Inh on DDR1 for CCS(=O)(=O)c1ccc(OC)c(Nc2nccc(-c3c(-c4cccc(NC(=O)c5c(F)cccc5F)c4)nn4ncccc34)n2)c1 [GSK326180] ?
Outgoing: 90%

====

System: CLK3
Settings: concentration: 1 μM, replicates: in singlicate; n = 1
Entries and their measured %Inh follow.
Put down the number, then write its unit next to it.

// solved cases for %Inh follow
| compound | %Inh |
| --- | --- |
| Nc1ncc(-c2ccc3nccc(-c4ccncc4)c3c2)cc1S(=O)(=O)N1CCOCC1 | 55% |
| CCS(=O)(=O)c1ccc(OC)c(Nc2nccc(-c3c(-c4cccc(NC(=O)c5c(F)cccc5F)c4)nn4ncccc34)n2)c1 | 9% |
| CC(C)c1nc(-c2cccc(NS(=O)(=O)c3c(F)cccc3F)c2F)c(-c2ccnc(Nc3ccc(N4CCOCC4)nc3)n2)s1 | 0% |
| O=C(NC1CCN(c2ccnc(Nc3ccc(F)cc3)n2)C1)c1cc2ccccc2s1 (centres unmarked) | 14% |
| c1ccc(-c2cnc3nccnn23)cc1 | 0% |

Incoming: Which %Inh value is on record for O=C(Nc1cccc(-c2nn3ccccc3c2-c2ccnc(Nc3cccc(F)c3)n2)c1)c1c(F)ccc(F)c1Cl ?
Outgoing: 0%

Incoming: Which %Inh value is on record for COc1cccc(-c2ccc3c(NC(=O)C4CC4)n[nH]c3n2)c1 ?
Outgoing: 0%

Incoming: Which %Inh value is on record for O=C(Nc1cccc(-c2nn3ccccc3c2-c2ccnc(Nc3cccc(C(F)(F)F)c3)n2)c1)c1c(F)cccc1F ?
Outgoing: 0%

====

Entries and their measured %Inh follow.
Tested on: ERK4
Construct: gene MAPK4
Conditions: concentration: 1 μM, replicates: in singlicate; n = 1
// note: answer is a bare numeric in %

// solved cases for %Inh follow
| compound | assay_target | measured_endpoint | recorded_value |
| --- | --- | --- | --- |
| COCCOCCOc1cc2ncc3c4ccc(C#N)cc4[nH]c3c2cc1OC | ERK4 | %Inh | 0 |
| Cl.Cl.NCC(C(=O)Nc1cc(Br)c(-c2ccnc3[nH]ccc23)s1)c1ccccc1 (centres unmarked) [GSK1269851] | ERK4 | %Inh | 6 |
| Cc1ccc(S(=O)(=O)Nc2ccc(Nc3nccc(Nc4cccc5[nH]ncc45)n3)cc2)cc1 [GSK581271] | ERK4 | %Inh | 5 |
| O=C(Nc1cccc(-c2nn3ccccc3c2-c2ccnc(Nc3cccc(F)c3)n2)c1)c1c(F)ccc(F)c1Cl [GSK357952] | ERK4 | %Inh | 0 |
| FC(F)(F)c1ccc(/C=C/c2cncnc2Nc2ccc3[nH]c(Cc4ccccc4)nc3c2)cc1 [GW709199] | ERK4 | %Inh | 9 |
| COc1cc(Nc2ncc3c(C)nc(-c4cc5ccccc5[nH]4)n3n2)cc(OC)c1OC [GW869516] | ERK4 | %Inh | 38 |
| Clc1ccc(-c2nn3ncccc3c2-c2ccnc(Nc3ccc4c(c3)OCCO4)n2)cc1 [GW829116] | ERK4 | %Inh | 0 |

Now turn to the next compound.
Incoming: Which %Inh value is on record for O=C(Nc1n[nH]c2nc(-c3ccc(O)cc3)ccc12)C1CC1 [SB-710363] ?
Outgoing: 0

====

System: MYO3A
Details: concentration: 1 μM, replicates: in singlicate; n = 1
Entries and their measured %Inh follow.
// note: answer is a bare numeric in %

| compound | value_unit | %Inh |
| --- | --- | --- |
| Cl.c1ccc(-c2ccc3c(Nc4ccc5[nH]ccc5c4)ccnc3c2)nc1 [GW440138] | % | 23 |

Incoming: Can you look up %Inh on MYO3A for C[C@@H](Oc1cc(-n2cnc3cc(-c4ccnc(NCCS(C)(=O)=O)c4)ccc32)sc1C(N)=O)c1ccccc1Cl [GSK907232] ?
Outgoing: 13

Incoming: Can you look up %Inh on MYO3A for COc1cc(Nc2ncc3c(C)nc(-c4cc5ccccc5[nH]4)n3n2)cc(OC)c1OC [GW869516] ?
Outgoing: 0

Incoming: Can you look up %Inh on MYO3A for Cc1occc1-c1ncc(OC[C@@H](N)Cc2c[nH]c3ccccc23)cc1-c1ccc2[nH]nc(C)c2c1.O=C(O)C(F)(F)F [GSK682037] ?
Outgoing: 75

Incoming: Can you look up %Inh on MYO3A for COCCOCCOc1cc2ncc3c4ccc(C#N)cc4[nH]c3c2cc1OC ?
Outgoing: 10

Incoming: Can you look up %Inh on MYO3A for Cl.Cl.NCC(NC(=O)c1cc(-c2ccccc2)c(-c2ccnc3[nH]ccc23)s1)c1ccccc1 (centres unmarked) [GSK1321561] ?
Outgoing: 14

Incoming: Can you look up %Inh on MYO3A for CCn1c(-c2nonc2N)nc2c(C#CC(C)(C)O)nc(OC[C@H](N)c3ccccc3)cc21 [GSK943949] ?
Outgoing: 0

Incoming: Can you look up %Inh on MYO3A for CN(C)S(=O)(=O)c1cc(-c2ccc3nccc(-c4cccc(S(N)(=O)=O)c4)c3c2)cnc1N [GSK1669921] ?
Outgoing: 0
